system: PC15; assay: qHTS profiling for inhibitors of Plasmodium falciparum proliferation (AID 504749); further: nearly all actives have a fitted effect of over 60% in size; conditions: P. falciparum in erythrocytes, SYBR Green DNA, 72 h; series mostly up to 28.7 µM
Results filed as inconclusive are left out. Calls of active or inactive are those of the source. The call rests on the fitted dose curve; in most records, active means well fitted inhibition curve with a large enough effect; inconclusive means small, poorly fitted or top-dose-only effect; inactive means flat fitted curve, though single readings scatter.
Possible outcomes: yes = active, no = inactive

molecule	category
CCCCC	no
CC1CCC(NC(=O)N(CCCl)N=O)CC1 (stereo not given)	no
CCc1ccc(S(=O)(=O)O)cc1	no
O=C1c2ccccc2C(=O)c2c1ccc(O)c2O	no
NCCN	no
Cc1nc(NS(=O)(=O)c2ccc(N)cc2)nc(C)c1Br	no
NC(=O)Oc1ccc(Cc2ccccc2)cc1	no
CC(/C=C/C=C(\C)C(=O)O[C@@H]1O[C@H](CO[C@@H]2O[C@H](CO)[C@@H](O)[C@H](O)[C@H]2O)[C@@H](O)[C@H](O)[C@H]1O)=C\C=C\C=C(C)\C=C\C=C(/C)C(=O)O[C@@H]1O[C@H](CO[C@@H]2O[C@H](CO)[C@@H](O)[C@H](O)[C@H]2O)[C@@H](O)[C@H](O)[C@H]1O	no
C(=C\c1ccncc1)/c1ccccc1	no
O=C(O)COc1ccc(CCNS(=O)(=O)c2ccccc2)s1	no
COc1cc(C)c(/C=C/C(C)=C/C=C/C(C)=C/C(=O)O)c(C)c1C	no
COc1ccc(/C=C/C(=O)O)cc1	no
Cn1c(=O)c2c(ncn2CCOC(=O)C(C)(C)Oc2ccc(Cl)cc2)n(C)c1=O	no
CC1CC(O)CC(C)(C)C1 (stereo not given)	no
CC(=O)N[C@@H]1C(O[C@H]2O[C@H](C(=O)O)C(O)[C@H](O)[C@H]2O)[C@H](O)[C@@H](CO)O[C@H]1O[C@@H]1C(C(=O)O)O[C@@H](O[C@H]2[C@H](O)[C@@H](CO)OC(O)[C@@H]2NC(C)=O)[C@H](O)[C@H]1O (stereo not given in full)	no
CC(C)C1=CC2=CC[C@@H]3[C@](C)(CCC[C@@]3(C)C(=O)O)[C@H]2CC1	no
CCN(CC)CCOc1ccccc1OC	no
C=Cc1ccc(S(=O)(=O)O)cc1	no
CCCCCCCCCCCCCC(=O)OCC(COP(=O)([O-])OCC[N+](C)(C)C)OC(=O)CCCCCCCCCCCCC (stereo not given)	no
COc1ccc2c(c1)OC(C)(C)C(c1ccccc1)C2c1ccc(OCCN2CCCC2)cc1 (stereo not given)	yes
CC(C)(Oc1ccc(C2CCCc3ccccc32)cc1)C(=O)O (stereo not given)	no
CN1C(C(=O)Nc2ccccn2)C(=O)c2sc(Cl)cc2S1(=O)=O (stereo not given)	no
OC[C@H]1O[C@@H]2O[C@H]3[C@H](O)[C@@H](O)[C@@H](O[C@H]4[C@H](O)[C@@H](O)[C@@H](O[C@H]5[C@H](O)[C@@H](O)[C@@H](O[C@H]6[C@H](O)[C@@H](O)[C@@H](O[C@H]7[C@H](O)[C@@H](O)[C@@H](O[C@H]1[C@H](O)[C@H]2O)O[C@@H]7CO)O[C@@H]6CO)O[C@@H]5CO)O[C@@H]4CO)O[C@@H]3CO	no
FC(F)OC(Cl)C(F)(F)F (stereo not given)	no
O=C(O)CC/C=C\CC[C@@H]1[C@@H](N2CCCCC2)[C@@H](O)C[C@@H]1OCc1ccc(-c2ccccc2)cc1	no
